experiment: Pharmacokinetics of intraperitoneal or intravenous injection in CD1 mice (plasma, LC/MS/MS); type: in vivo; details: male, CD1, mouse, plasma, ip, 10 mg/kg, IP 10 mg/kg, 1 h, read-out: Conc. Mean
metric: concentration at 1 h

[
  {
    "structure.string": "COc1cc2c(Oc3ccc(NC(=O)C4(C(=O)Nc5ccc(F)cc5)CC4)cc3F)ccnc2cc1OCCCOCCCOCCC(=O)N[C@H](C(=O)N1C[C@H](O)C[C@H]1C(=O)NCc1ccc(-c2scnc2C)cc1)C(C)(C)C",
    "recorded.result": "5530 ng/mL"
  }
]

###

experiment: Pharmacokinetics of intraperitoneal or intravenous injection in CD1 mice (plasma, LC/MS/MS); type: in vivo; settings: male, CD1, mouse, plasma, iv, 1 mg/kg, IV 1.0 mg/kg, 0.083 h, read-out: Conc. Mean

[
  {
    "compound": "COc1cc2c(Oc3ccc(NC(=O)C4(C(=O)Nc5ccc(F)cc5)CC4)cc3F)ccnc2cc1OCCCOCCCOCCC(=O)N[C@H](C(=O)N1C[C@H](O)C[C@H]1C(=O)NCc1ccc(-c2scnc2C)cc1)C(C)(C)C [Example 1]",
    "concentration at 0.083 h, ng/mL": 1530
  }
]
